I'd appreciate it if you could supply selectivity ratio values for the items below.
experiment: Selectivity factor, ratio of IC50 for cytotoxicity against human MCF-10A cells to IC50 for antiproliferative activity against human MCF-7 cells; assay type: toxicity, cell-based; settings: MCF-10A cells versus MCF-7 cells, read-out: Ratio IC50
Could you respond with only the numeric value?

Exercise: Input C=C(C)[C@@H]1CC[C@]2(C)CC[C@]3(C)[C@H](CC[C@@H]4[C@@]5(C)CC[C@H](OC(=O)CCCC[P+](c6ccc(Cl)cc6)(c6ccc(Cl)cc6)c6ccc(Cl)cc6)C(C)(C)[C@@H]5CC[C@]43C)[C@@H]12 , output reported selectivity ratio.
Key: 0.8

Exercise: For the compound C=C(C)[C@@H]1CC[C@]2(C)CC[C@]3(C)[C@H](CC[C@@H]4[C@@]5(C)CC[C@H](OC(=O)CCC[P+](CCCCCCCC)(CCCCCCCC)CCCCCCCC)C(C)(C)[C@@H]5CC[C@]43C)[C@@H]12 , report selectivity ratio.
Key: 3.2

Exercise: Look up and report measured selectivity ratio for this entry: C=C(C)[C@@H]1CC[C@]2(C)CC[C@]3(C)[C@H](CC[C@@H]4[C@@]5(C)CC[C@H](OC(=O)CCCC[P+](CCCC)(CCCC)CCCC)C(C)(C)[C@@H]5CC[C@]43C)[C@@H]12
Key: 1.82

Exercise: Provide only the value of recorded selectivity ratio for C=C(C)[C@@H]1CC[C@]2(C)CC[C@]3(C)[C@H](CC[C@@H]4[C@@]5(C)CC[C@H](OC(=O)CCC[P+](c6ccc(OC)cc6)(c6ccc(OC)cc6)c6ccc(OC)cc6)C(C)(C)[C@@H]5CC[C@]43C)[C@@H]12
Key: 1.68

Exercise: For the compound C=C(C)[C@@H]1CC[C@]2(C)CC[C@]3(C)[C@H](CC[C@@H]4[C@@]5(C)CC[C@H](OC(=O)CC[P+](c6ccc(OC)cc6)(c6ccc(OC)cc6)c6ccc(OC)cc6)C(C)(C)[C@@H]5CC[C@]43C)[C@@H]12 , report selectivity ratio.
Key: 1.3

Data origin: ChEMBL document CHEMBL6092163
